Test system: HBV (HepG2.117 cell line, inducibly HBV producing)
ASSAY NOTES: Anti-HBV activity: intracellular HBV DNA by real-time PCR in HepG2.117 cells after 3 days of treatment
Format: cell-based, hepatitis B virus
PROTOCOL CONDITIONS: Hepatitis B virus, HepG2.117, 72 h, HepG2.117 cells, 3 days of treatment, intracellular HBV DNA by real-time PCR; mean value; read-out: EC50 (μM, mean value)
// NB: equality with 2 µM counts as criterion not met; only EC50 strictly below is criterion met

{"columns": ["COMPOUND", "EXPERIMENTAL SYSTEM", "ANSWER LABEL"],
 "data": [
  ["CC(C)Nc1nc2c(c(=O)n1-c1ccc(S(C)(=O)=O)cc1)CCN(C(=O)c1ccc3nccn3c1)C2", "HBV (HepG2.117 cell line, inducibly HBV producing)", "criterion not met"],
  ["CC(C)Nc1nc2c(c(=O)n1-c1ccc(S(C)(=O)=O)cc1)C[C@H](C)N(C(=O)c1ccc(Cl)c(Cl)c1)C2 [Compound C100B]", "HBV (HepG2.117 cell line, inducibly HBV producing)", "criterion not met"],
  ["CNC(=O)c1ccc(-n2c(N[C@H](c3ccccc3)C3CC3)nc3c(c2=O)C[C@@H](C)N(C(=O)c2ccc(Cl)c(Cl)c2)C3)cc1 (single isomer, unassigned)", "HBV (HepG2.117 cell line, inducibly HBV producing)", "criterion met"],
  ["CNC(=O)c1cnc(-n2c(NC(C)C)nc3c(c2=O)C[C@@H](C)N(C(=O)c2ccc(Cl)c(C(F)(F)F)c2)C3)cn1", "HBV (HepG2.117 cell line, inducibly HBV producing)", "criterion met"],
  ["COc1ccccc1-n1c(NCc2nccs2)nc2c(c1=O)CCN(C(=O)c1ccc(Cl)c(Cl)c1)C2", "HBV (HepG2.117 cell line, inducibly HBV producing)", "criterion not met"],
  ["COc1ccc(CNc2nc3c(c(=O)n2-c2ccccc2OC)CCN(C(=O)c2cc4ccccc4[nH]2)C3)cc1", "HBV (HepG2.117 cell line, inducibly HBV producing)", "criterion met"],
  ["COc1ccccc1-n1c(NC2COC2)nc2c(c1=O)CCN(C(=O)c1ccc(Cl)c(Cl)c1)C2", "HBV (HepG2.117 cell line, inducibly HBV producing)", "criterion not met"],
  ["CC(C)Nc1nc2c(c(=O)n1-c1ccc(-c3ncccn3)cc1)C[C@@H](C)N(C(=O)c1ccc(Cl)c(Cl)c1)C2", "HBV (HepG2.117 cell line, inducibly HBV producing)", "criterion met"],
  ["COc1ccc(CN(CCCO)c2nc3c(c(=O)[nH]2)CCN(C(=O)c2ccc(Cl)c(Cl)c2)C3)cc1", "HBV (HepG2.117 cell line, inducibly HBV producing)", "criterion not met"],
  ["CC(C)Nc1nc2c(c(=O)n1-c1ccc(-c3cnccn3)cc1)CCN(C(=O)c1ccc(Cl)c(Cl)c1)C2", "HBV (HepG2.117 cell line, inducibly HBV producing)", "criterion met"],
  ["COc1ccc(CNc2nc3c(c(=O)n2C2COC2)CCN(C(=O)c2ccc(Cl)c(Cl)c2)C3)cc1", "HBV (HepG2.117 cell line, inducibly HBV producing)", "criterion not met"],
  ["CNC(=O)c1cc(-n2c(NC(C)C)nc3c(c2=O)C[C@@H](C)N(C(=O)c2ccc(Cl)c(Cl)c2)C3)nn1C", "HBV (HepG2.117 cell line, inducibly HBV producing)", "criterion met"],
  ["COc1ccc(CNc2nc3c(c(=O)[nH]2)CCN(C(=O)c2cc4ccc(Cl)cc4[nH]2)C3)cc1", "HBV (HepG2.117 cell line, inducibly HBV producing)", "criterion not met"]
]}

====

molecules and their reported CC50 at 3 days
ASSAY NOTES: in vitro
Assay type: cell-based
PROTOCOL CONDITIONS: human, HepG2 or HepG2.117 cells, 3-days incubation (unmarked values), ATPlite viability, mean value

{"columns": ["MOLECULE", "CC50 at 3 days"],
 "data": [
  ["CNC(=O)c1ccc(-n2c(N3CC4CC3C4)nc3c(c2=O)C[C@@H](C)N(C(=O)c2ccc(Cl)c(C(F)(F)F)c2)C3)c(Cl)c1 (single isomer, unassigned) [Compound C701a]", "> 50 µM"],
  ["CNC(=O)c1ccc(-n2c(N[C@@H](C)C3CC3)nc3c(c2=O)C[C@@H](C)N(C(=O)c2ccc(Cl)c(C(F)F)c2)C3)cc1 [Compound C699]", "> 50 µM"],
  ["CC(C)NC(=O)c1ncc(-n2c(NC(C)C)nc3c(c2=O)C[C@@H](C)N(C(=O)c2ccc(Cl)c(C(F)(F)F)c2)C3)n1C [Compound C703]", "> 50 µM"],
  ["CNC(=O)c1cnc(-n2c(NC(C)C)nc3c(c2=O)C[C@@H](C)N(C(=O)c2ccc(Cl)c(C(F)(F)F)c2)C3)cn1 [Compound C695]", "> 50 µM"],
  ["CNC(=O)c1ncc(-n2c(NC)nc3c(c2=O)C[C@@H](C)N(C(=O)c2ccc(Cl)c(C(F)(F)F)c2)C3)n1C [Compound C702]", "> 50 µM"]
]}

====

CC50 at 3 days values by entry
ASSAY NOTES: in vitro
Type: cell-based
PROTOCOL CONDITIONS: human, HepG2 or HepG2.117 cells, ATPlite, 3-days incubation (not marked with *), mean value
PROPERTY LABEL: CC50 at 3 days

{"columns": ["COMPOUND", "RESULT"],
 "data": [
  ["CNC(=O)c1cc(-n2c(NC(C)C)nc3c(c2=O)C[C@@H](C)N(C(=O)c2cccc(C(F)(F)F)c2)C3)n(C)n1", "> 50 µM"],
  ["CNC(=O)c1ccc(-n2c(NC(C)C)nc3c(c2=O)C[C@@H](C)N(C(=O)c2cc4ccc(Cl)c(F)c4[nH]2)C3)cc1", "26.1 µM"],
  ["CC(C)NC(=O)c1cnc(-n2c(NC(C)C)nc3c(c2=O)C[C@@H](C)N(C(=O)c2ccc(Cl)c(Cl)c2)C3)nc1", "> 50 µM"],
  ["CNC(=O)c1ccc(-n2c(NC(C)C)nc3c(c2=O)C[C@@H](C)N(C(=O)c2ccc(C)c(C(F)(F)F)c2)C3)cc1", "> 50 µM"],
  ["CNC(=O)c1cc(-n2c(N[C@@H](C)c3ccc(C(F)(F)F)cc3)nc3c(c2=O)C[C@@H](C)N(C(=O)c2ccc(Cl)c(Cl)c2)C3)[nH]n1", "20.7 µM"],
  ["CNC(=O)c1ccc(-n2c(N[C@@H](C)c3cc(C)no3)nc3c(c2=O)C[C@@H](C)N(C(=O)c2ccc(Cl)c(Cl)c2)C3)cc1 (single isomer, unassigned) [Compound C433b]", "> 50 µM"]
]}

====

Catalogue of CC50 at 3 days readings, one per entry.
ASSAY NOTES: in vitro
Format: cell-based
PROTOCOL CONDITIONS: human, HepG2 or HepG2.117 cells, 3-days incubation (unmarked values), ATPlite; mean value

{"columns": ["MOLECULE", "CC50 at 3 days"],
 "data": [
  ["COc1ccc(Cn2c(N)nc3c(c2=O)CCN(C(=O)c2ccc(Cl)c(Cl)c2)C3)cc1", "7.1 µM"],
  ["CNc1noc2ccc(-n3c(NC(C)C)nc4c(c3=O)C[C@@H](C)N(C(=O)c3ccc(Cl)c(Cl)c3)C4)cc12", "> 50 µM"],
  ["CC(C)Nc1nc2c(c(=O)n1-c1ccc(S(C)(=O)=O)cc1)CCN(C(=O)c1ccc3ocnc3c1)C2", "> 50 µM"],
  ["CC[C@@H](C)Nc1nc2c(c(=O)n1-c1ccc(C(=O)NC)cc1)C[C@@H](C)N(C(=O)c1ccc(Cl)c(Cl)c1)C2", "> 50 µM"],
  ["CC(C)Nc1nc2c(c(=O)n1-c1ccc(N3CC[C@@H](O)C3)cc1)C[C@@H](C)N(C(=O)c1ccc(Cl)c(Cl)c1)C2", "36.8 µM"],
  ["COc1ccc(CNc2nc3c(c(=O)n2C2CC2)CCN(C(=O)c2ccc(Cl)c(Cl)c2)C3)cc1", "23.1 µM"],
  ["CC(C)Nc1nc2c(c(=O)n1-c1ccc(S(C)(=O)=O)cc1)CCN(C(=O)c1cc3ccccc3s1)C2", "> 50 µM"],
  ["Cc1nc(-c2ccc(-n3c(NC(C)C)nc4c(c3=O)C[C@@H](C)N(C(=O)c3ccc(Cl)c(Cl)c3)C4)c(Cl)c2)c[nH]1", "> 50 µM"],
  ["COc1ccccc1-n1c(NC2CCCC2)nc2c(c1=O)CCN(C(=O)c1ccc(Cl)c(Cl)c1)C2", "27.2 µM"],
  ["COc1ccc(CNc2nc3c(c(=O)n2-c2ccc(N4CCOCC4C(=O)O)cc2)CCN(C(=O)c2ccc(Cl)c(Cl)c2)C3)cc1 (centres unmarked)", "> 50 µM"],
  ["COc1ccc(CNc2nc3c(c(=O)n2-c2ccccc2OC)CC(C)N(C(=O)c2ccc(Cl)c(Cl)c2)C3)cc1 (centres unmarked)", "> 50 µM"],
  ["CCOC(=O)c1ccc(-n2c(NCc3ccc(OC)cc3)nc3c(c2=O)CCN(C(=O)c2ccc(Cl)c(Cl)c2)C3)cc1", "> 50 µM"],
  ["CC(C)Nc1nc2c(c(=O)n1-c1ccc(S(C)(=O)=O)cc1)C[C@@H](C)N(C(=O)c1ccc(Cl)c(Cl)c1)C2 [Compound C100A]", "> 50 µM"],
  ["CCC1Cc2c(nc(NC(C)C)n(-c3ccc(S(C)(=O)=O)cc3)c2=O)CN1C(=O)c1ccc(Cl)c(Cl)c1 (centres unmarked)", "> 50 µM"],
  ["CC(C)Nc1nc2c(c(=O)n1-c1ccc(S(C)(=O)=O)cc1)CCN(C(=O)c1ccc3occc3c1)C2", "> 50 µM"],
  ["CC(C)Nc1nc2c(c(=O)n1-c1ccc(S(C)(=O)=O)cc1)CCN(C(=O)c1cc3cc(F)c(F)cc3[nH]1)C2", "> 50 µM"],
  ["CCC(C)Nc1nc2c(c(=O)n1-c1ccccc1OC)CCN(C(=O)c1ccc(Cl)c(Cl)c1)C2 (centres unmarked)", "26.8 µM"],
  ["CC(C)Nc1nc2c(c(=O)n1-c1ccc(-c3ccnnc3)cc1)CCN(C(=O)c1ccc(Cl)c(Cl)c1)C2", "18.2 µM"],
  ["COc1ccccc1-n1c(N[C@H](C)C(F)(F)F)nc2c(c1=O)CCN(C(=O)c1ccc(Cl)c(Cl)c1)C2 (single isomer, unassigned) [Compound C101a]", "36.9 µM"],
  ["Cc1[nH]cnc1-c1ccc(-n2c(NC(C)C)nc3c(c2=O)C[C@@H](C)N(C(=O)c2ccc(Cl)c(Cl)c2)C3)cc1", "31.1 µM"],
  ["CC(C)Nc1ncc(-n2c(NC(C)C)nc3c(c2=O)C[C@@H](C)N(C(=O)c2ccc(Cl)c(Cl)c2)C3)cn1", "> 46 µM"],
  ["CNC(=O)c1ccc(-n2c(N[C@H]3CCCC3(C)C)nc3c(c2=O)C[C@@H](C)N(C(=O)c2ccc(Cl)c(Cl)c2)C3)cc1 (single isomer, unassigned)", "23.5 µM"],
  ["CC(C)Nc1nc2c(c(=O)n1-c1ccc(S(C)(=O)=O)cc1)CCN(C(=O)c1ccc(Cl)c(C(F)(F)F)c1)C2", "> 50 µM"],
  ["Cc1coc2ccc(C(=O)N3CCc4c(nc(NC(C)C)n(-c5ccc(S(C)(=O)=O)cc5)c4=O)C3)cc12", "> 50 µM"],
  ["COc1cccnc1-c1ccc(-n2c(NC(C)C)nc3c(c2=O)CCN(C(=O)c2ccc(Cl)c(Cl)c2)C3)cc1", "5.3 µM"],
  ["COc1ccc(CNc2nc3c(c(=O)n2-c2ccc(S(C)(=O)=O)cc2)CC(c2ccc(F)cc2)N(C(=O)c2ccc(Cl)c(Cl)c2)C3)cc1 (centres unmarked)", "> 50 µM"]
]}

Each recorded value in this set is attributed to patent US20230091047A1.
